Study System: uPAR-expressing HEC-265 human endometrial adenocarcinoma cells (Homo sapiens, UniProt Q03405)
Sequence (Q03405 23-335): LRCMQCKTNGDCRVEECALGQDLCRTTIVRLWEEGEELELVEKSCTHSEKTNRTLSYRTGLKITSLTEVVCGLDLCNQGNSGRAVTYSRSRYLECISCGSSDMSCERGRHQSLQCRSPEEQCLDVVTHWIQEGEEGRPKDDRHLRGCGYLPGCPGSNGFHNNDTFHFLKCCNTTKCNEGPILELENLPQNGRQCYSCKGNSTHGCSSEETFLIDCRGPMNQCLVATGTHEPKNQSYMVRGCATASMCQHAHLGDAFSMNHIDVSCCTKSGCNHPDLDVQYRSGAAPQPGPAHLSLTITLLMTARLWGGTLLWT
Where a SMILES comes first, the peptide text is derived from it. Bridges are numbered along the chain shown (N, C = ends). [ ]: non-standard residue; d: D form. The star is where a group is joined. Hyp = O=C(O)[C@@H]1C[C@@H](O)CN1; hPhe = N[C@@H](CCc1ccccc1)C(=O)O; Cit = NC(=O)NCCC[C@H](N)C(=O)O; Nva = CCC[C@H](N)C(=O)O; Hexanoyl = CCCCCC(=O)*; Pentanoyl = CCCCC(=O)*
A collection of compounds and their measured IC50

CCCCCC(=O)N[C@H]1CSSC[C@@H](C(N)=O)NC(=O)[C@H](CC(C)C)NC(=O)[C@H]([C@@H](C)CC)NC(=O)[C@@H](C)NC(=O)[C@@H]2CCCN2C(=O)[C@H](Cc2ccccc2)NC(=O)[C@H](Cc2ccc(O)cc2)NC(=O)[C@H](CCC(N)=O)NC(=O)[C@H](CCCNC(N)=O)NC1=O [UPAR-475] (Hexanoyl-C[Cit]QYFP[dA]ILC-NH2; disulfide 1-10)
≤ 10 nM

// CCCCC(=O)N[C@H]1CSSC[C@@H](C(N)=O)NC(=O)[C@H](CCC)NC(=O)[C@H](CCc2ccccc2)NC(=O)[C@@H]2C[C@@H](O)CN2C(=O)[C@@H]2CCCN2C(=O)[C@H](Cc2ccccc2)NC(=O)[C@H](Cc2ccc(O)cc2)NC(=O)[C@H](CCC(N)=O)NC(=O)[C@H](CCCNC(=N)N)NC1=O [UPAR-461] (Pentanoyl-CRQYFP[Hyp][hPhe][Nva]C-NH2; disulfide 1-10) : IC50 value = ≤ 10 nM

// CCCCC(=O)N[C@H]1CSSC[C@@H](C(N)=O)NC(=O)[C@H](CCC)NC(=O)[C@H]([C@@H](C)CC)NC(=O)[C@@H]2C[C@@H](O)CN2C(=O)[C@@H]2CCCN2C(=O)[C@H](Cc2ccccc2)NC(=O)[C@H](Cc2ccc(O)cc2)NC(=O)[C@H](CCC(N)=O)NC(=O)CNC1=O [UPAR-236] (Pentanoyl-CGQYFP[Hyp]I[Nva]C-NH2; disulfide 1-10) : IC50 value = ≤ 10 nM

* * *

A collection of compounds and their measured IC50
Study System: uPAR-expressing HEC-265 human endometrial adenocarcinoma cells (Homo sapiens)
Where a SMILES comes first, the peptide text is derived from it. Bridges are numbered along the chain shown (N, C = ends). [ ]: non-standard residue; d: D form. The star is where a group is joined. DOTA = O=C(O)CN1CCN(CC(=O)O)CCN(CC(=O)*)CCN(CC(=O)O)CC1; Hyp = O=C(O)[C@@H]1C[C@@H](O)CN1; Cit = NC(=O)NCCC[C@H](N)C(=O)O; dNMeA = CN[C@H](C)C(=O)O; Nva = CCC[C@H](N)C(=O)O; Pentanoyl = CCCCC(=O)*

Worked set:
CCCCC(=O)N[C@H]1CSSC[C@@H](C(N)=O)NC(=O)[C@H](CCC)NC(=O)[C@H]([C@@H](C)CC)NC(=O)[C@@H]2C[C@@H](O)CN2C(=O)[C@@H]2CCCN2C(=O)[C@H](Cc2ccccc2)NC(=O)[C@H](Cc2ccc(O)cc2)NC(=O)CNC(=O)[C@H](CCCNC(=N)N)NC1=O [UPAR-409] (Pentanoyl-CRGYFP[Hyp]I[Nva]C-NH2; disulfide 1-10)
≤ 0.01 µM
CCCCC(=O)N[C@H]1CSSC[C@@H](C(N)=O)NC(=O)[C@H](CCC)NC(=O)[C@H]([C@@H](C)CC)NC(=O)[C@@H]2C[C@@H](O)CN2C(=O)[C@@H](C)N(C)C(=O)[C@H](Cc2ccccc2)NC(=O)[C@H](Cc2ccc(O)cc2)NC(=O)[C@H](CCC(N)=O)NC(=O)[C@H](CCCNC(=N)N)NC1=O [UPAR-211] (Pentanoyl-CRQYF[dNMeA][Hyp]I[Nva]C-NH2; disulfide 1-10)
≥ 0.126 µM

Now take the following compound into account.
Observed IC50 on uPAR-expressing HEC-265 human endometrial adenocarcinoma cells (Homo sapiens), entry CCCCC(=O)N[C@H]1CSSC[C@@H](C(N)=O)NC(=O)[C@H](CCC)NC(=O)[C@H]([C@@H](C)CC)NC(=O)[C@@H]2C[C@@H](O)CN2C(=O)[C@@H]2CCCN2C(=O)[C@H](Cc2ccccc2)NC(=O)[C@H](Cc2c[nH]cn2)NC(=O)[C@H](CCCCNC(=O)CN2CCN(CC(=O)O)CCN(CC(=O)O)CCN(CC(=O)O)CC2)NC(=O)[C@H](CCCNC(N)=O)NC1=O [UPAR-324] (Pentanoyl-C[Cit]K(DOTA)HFP[Hyp]I[Nva]C-NH2; disulfide 1-10) , equals ≤ 0.01 µM

* * *

Study System: uPAR-expressing HEC-265 human endometrial adenocarcinoma cells (Homo sapiens)
Where a SMILES comes first, the peptide text is derived from it. Bridges are numbered along the chain shown (N, C = ends). [ ]: non-standard residue; d: D form. The star is where a group is joined. DOTA = O=C(O)CN1CCN(CC(=O)O)CCN(CC(=O)*)CCN(CC(=O)O)CC1; Pro(cis-4-F) = O=C(O)[C@@H]1C[C@H](F)CN1; Hyp = O=C(O)[C@@H]1C[C@@H](O)CN1; Butoxycarbonyl = CCCCOC(=O)*; Phg = N[C@H](C(=O)O)c1ccccc1; Nva = CCC[C@H](N)C(=O)O; Deg = CCC(N)(CC)C(=O)O; Pentanoyl = CCCCC(=O)*
A collection of molecules and their measured IC50

CCCCC(=O)N[C@H]1CSSC[C@@H](C(N)=O)NC(=O)[C@H](CCC)NC(=O)C(CC)(CC)NC(=O)[C@@H]2C[C@@H](O)CN2C(=O)[C@@H]2CCCN2C(=O)[C@H](Cc2ccccc2)NC(=O)[C@H](Cc2ccc(O)cc2)NC(=O)[C@H](CCC(N)=O)NC(=O)[C@H](CCCNC(=N)N)NC1=O [UPAR-179] (Pentanoyl-CRQYFP[Hyp][Deg][Nva]C-NH2; disulfide 1-10)
≥ 126 nM
CCCCC(=O)N[C@H]1CSSC[C@@H](C(N)=O)NC(=O)[C@H](CCC)NC(=O)[C@H]([C@@H](C)CC)NC(=O)[C@@H]2C[C@@H](O)CN2C(=O)[C@@H]2CCCN2C(=O)[C@H](Cc2ccccc2)NC(=O)[C@H](c2ccccc2)NC(=O)[C@H](CCC(N)=O)NC(=O)[C@H](CCCNC(=N)N)NC1=O [UPAR-196] (Pentanoyl-CRQ[Phg]FP[Hyp]I[Nva]C-NH2; disulfide 1-10)
≥ 126 nM

Now take the following molecule into account.
Observed IC50 on uPAR-expressing HEC-265 human endometrial adenocarcinoma cells (Homo sapiens), entry CCCCOC(=O)N[C@H]1CSSC[C@@H](C(N)=O)NC(=O)[C@H](CCC)NC(=O)[C@H]([C@@H](C)CC)NC(=O)[C@@H]2C[C@@H](O)CN2C(=O)[C@@H]2C[C@H](F)CN2C(=O)[C@H](Cc2ccccc2)NC(=O)[C@H](Cc2ccc(O)cc2)NC(=O)[C@H](CCCCNC(=O)CN2CCN(CC(=O)O)CCN(CC(=O)O)CCN(CC(=O)O)CC2)NC(=O)[C@H]([C@@H](C)O)NC1=O [UPAR-237] (Butoxycarbonyl-CTK(DOTA)YF[Pro(cis-4-F)][Hyp]I[Nva]C-NH2; disulfide 1-10) , equals ≤ 10 nM

* * *

Study System: human uPAR (uPAR-Fc) (Homo sapiens, UniProt Q03405)
Construct: comprising amino acids Leu23-Arg303 according to UniProt entry Q03405.1; purchased R&D Systems 10378-UK-100
Sequence (Q03405 23-303): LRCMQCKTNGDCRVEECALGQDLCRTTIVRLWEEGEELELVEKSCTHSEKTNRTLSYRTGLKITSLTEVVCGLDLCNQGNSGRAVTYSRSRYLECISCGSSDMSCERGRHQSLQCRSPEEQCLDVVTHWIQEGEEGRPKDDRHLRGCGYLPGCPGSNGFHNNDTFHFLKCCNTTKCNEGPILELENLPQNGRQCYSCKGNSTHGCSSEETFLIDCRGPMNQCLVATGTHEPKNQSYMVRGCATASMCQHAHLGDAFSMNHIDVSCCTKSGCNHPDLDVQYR
Experiment Summary: Surface plasmon resonance (SPR) assay, single cycle kinetics
Assay type: binding
Experimental Setup: pKD category for uPAR SPR activity assay; uPAR-Fc on Protein A-Chip, 25°C; read-out: pKD CAT (converted)
Where a SMILES comes first, the peptide text is derived from it. Bridges are numbered along the chain shown (N, C = ends). [ ]: non-standard residue; d: D form. The star is where a group is joined. DOTA = O=C(O)CN1CCN(CC(=O)O)CCN(CC(=O)*)CCN(CC(=O)O)CC1; Pro(4R-NH2) = N[C@H]1CN[C@H](C(=O)O)C1; Hyp = O=C(O)[C@@H]1C[C@@H](O)CN1; Pentanoyl(4-Me) = CC(C)CCC(=O)*; Cit = NC(=O)NCCC[C@H](N)C(=O)O; Api = NC1(C(=O)O)CCNCC1; Nva = CCC[C@H](N)C(=O)O; Pentanoyl = CCCCC(=O)*
A collection of compounds and their measured Kd

CCCCC(=O)N[C@H]1CSSC[C@@H](C(N)=O)NC(=O)[C@H](CCC)NC(=O)[C@H]([C@@H](C)CC)NC(=O)[C@@H]2C[C@@H](O)CN2C(=O)[C@@H]2CCCN2C(=O)[C@H](Cc2ccccc2)NC(=O)[C@H](Cc2ccc(O)cc2)NC(=O)C2(CCN(C(=O)CN3CCN(CC(=O)O)CCN(CC(=O)O)CCN(CC(=O)O)CC3)CC2)NC(=O)[C@H]([C@@H](C)O)NC1=O [UPAR-288] (Pentanoyl-CT[Api](DOTA)YFP[Hyp]I[Nva]C-NH2; disulfide 1-10)
< 1.58 nM

Now take the following compound into account.
Observed Kd on human uPAR (uPAR-Fc) (Homo sapiens, UniProt Q03405), entry CC[C@H](C)[C@@H]1NC(=O)[C@@H](C)NC(=O)[C@@H]2C[C@@H](N)CN2C(=O)[C@H](Cc2ccccc2)NC(=O)[C@H](Cc2ccc(O)cc2)NC(=O)[C@H](CCC(N)=O)NC(=O)[C@H](CCCNC(N)=O)NC(=O)[C@@H](NC(=O)CCC(C)C)CSSC[C@@H](C(N)=O)NC(=O)[C@H](CC(C)C)NC1=O [UPAR-163] ({Pentanoyl(4-Me)}-C[Cit]QYF[Pro(4R-NH2)][dA]ILC-NH2; disulfide 1-10) , equals 1.58 to 10 nM

Cited source for all entries: patent EP4610269A1
